# assay system: GABA-A receptor; anion channel
# experiment summary: Inhibition of [3H]- flunitrazepam binding to GABA-A Benzodiazepine receptor of rat cerebral cortex membranes
recorded endpoint: pIC50
Scale: negative log10 of molar concentration, which is what pIC50 denotes.

# annotated cases, reported pIC50 shown
CS(=O)(=O)Nc1cc2c3ccccc3nc-2c[nH]1
4.21
CC(=O)Nc1cc2c3ccccc3nc-2c[nH]1
5.40
COC(=O)Nc1cc2c3ccccc3nc-2c[nH]1
7.15
CCOC(=O)Nc1cc2c3ccccc3nc-2c[nH]1
7.10
O=CNc1cc2c3ccccc3nc-2c[nH]1
5.33
CCOC(=O)c1cc2c(cn1)[nH]c1ccccc12
8.70
CCNc1cc2c3ccccc3nc-2c[nH]1
6.34
Nc1cc2c(cn1)[nH]c1ccccc12
4.60

Q: Please report the recorded pIC50 for `O=C(Nc1cc2c3ccccc3nc-2c[nH]1)C(F)(F)F` .
Result: 5.20
